- experimental.system: Kallikrein-7 (Homo sapiens, UniProt P49862)
- Sequence (P49862 whole entry, the tested form may be a part): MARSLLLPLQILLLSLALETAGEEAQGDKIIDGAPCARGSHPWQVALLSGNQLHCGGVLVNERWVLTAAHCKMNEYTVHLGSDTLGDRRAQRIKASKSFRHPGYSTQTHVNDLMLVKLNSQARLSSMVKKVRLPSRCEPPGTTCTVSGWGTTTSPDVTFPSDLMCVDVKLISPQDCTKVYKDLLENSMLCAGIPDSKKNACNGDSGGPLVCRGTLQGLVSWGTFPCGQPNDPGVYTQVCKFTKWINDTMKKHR
- test.protocol: Inhibition of recombinant human C-terminal His10-tagged KLK7 (E23 to H252 residues) using MOCAcArg-Pro-Lys-Pro-Val-Glu-Nva-Trp-Arg-Lys(Dnp)-NH2 as substrate preincubated for 10 mins followed by substrate addition measured after 30 mins by fluorescence assay
parameter: IC50 (µM)

Please review the entries below; each comes with its answer.
molecule	experimental.system	IC50 (µM)
CN(C)/N=C1/CN(CC(=O)Nc2cccc(-c3cnn(C)c3)c2)C(=O)C(Cc2c(Cl)cccc2Cl)CN1 (racemic)	Kallikrein-7 (Homo sapiens, UniProt P49862)	0.79
CN(C)/N=C1/CN(CC(=O)Nc2cccc(-c3cnn(C)c3)c2)C(=O)C(Cc2ccccc2C#N)CN1 (racemic)	Kallikrein-7 (Homo sapiens, UniProt P49862)	17
COc1cccc(F)c1CC1CN/C(=N\N(C)C)CN(CC(=O)Nc2cccc(-c3cnn(C)c3)c2)C1=O (racemic)	Kallikrein-7 (Homo sapiens, UniProt P49862)	6.8
Cc1cccc(Cl)c1CC1CN/C(=N\N(C)C)CN(CC(=O)Nc2cccc(-c3cnn(C)c3)c2)C1=O (racemic)	Kallikrein-7 (Homo sapiens, UniProt P49862)	1.5
CN(C)/N=C1/CN(CC(=O)Nc2cccc(-c3cnn(C)c3)c2)C(=O)C(Cc2c(Cl)cccc2Cl)CN1 (single isomer, unassigned; (-))	Kallikrein-7 (Homo sapiens, UniProt P49862)	0.38

(A) Cc1cccc(C#N)c1CC1CN/C(=N\N(C)C)CN(CC(=O)Nc2cccc(-c3cnn(C)c3)c2)C1=O (racemic)
(B) Cc1cccc(F)c1CC1CN/C(=N\N(C)C)CN(CC(=O)Nc2cccc(-c3cnn(C)c3)c2)C1=O (racemic)
Request: Response body: label of entry with the larger IC50; valid values A , B . Bench note: the answer is the label of the chosen record.
Response: A

----------
- experimental.system: Kallikrein-7 (Homo sapiens)
- test.protocol: Inhibition of recombinant human C-terminal His10-tagged KLK7 (E23 to H252 residues) using MOCAcArg-Pro-Lys-Pro-Val-Glu-Nva-Trp-Arg-Lys(Dnp)-NH2 as substrate preincubated for 10 mins followed by substrate addition measured after 30 mins by fluorescence assay
parameter: IC50 (nM)

compound	IC50 / nM
CN(C)/N=C1/CN(CC(=O)Nc2cccc(-c3cnn(C)c3)c2)C(=O)C(Cc2c(F)cccc2C(F)(F)F)CN1 (racemic)	2700

(I) CN(C)/N=C1/CN(CC(=O)Nc2cccc(-c3cnn(C)c3)c2)C(=O)C(Cc2ccccc2Cl)CN1 (racemic)
(II) COc1cccc(Cl)c1CC1CN/C(=N\N(C)C)CN(CC(=O)Nc2cccc(-c3cnn(C)c3)c2)C1=O (racemic)
Request: Response body: label of entry with the larger IC50; valid values I , II . Bench note: the answer is the label of the chosen record.
Response: II

----------
Reported values: pIC50 for UniProtKB Q91VE3, one per item.
Sequence (Q91VE3 whole entry): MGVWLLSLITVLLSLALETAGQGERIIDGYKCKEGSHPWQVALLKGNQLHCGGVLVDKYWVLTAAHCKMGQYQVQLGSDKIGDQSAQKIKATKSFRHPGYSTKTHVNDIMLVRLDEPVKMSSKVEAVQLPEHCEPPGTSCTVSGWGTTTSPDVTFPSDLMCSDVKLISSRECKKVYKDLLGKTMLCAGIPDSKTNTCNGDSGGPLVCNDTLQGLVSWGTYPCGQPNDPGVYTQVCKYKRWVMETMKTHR
pIC50: −log10 of the molar value.

Please review the entries below; each comes with its answer.
molecule	parameter	result
CN(C)/N=C1/CN(CC(=O)Nc2cccc(-c3cnn(C)c3)c2)C(=O)C(Cc2c(F)cccc2Cl)CN1 (racemic)	pIC50	5.22
CN(C)/N=C1/CN(CC(=O)Nc2cccc(-c3cnn(C)c3)c2)C(=O)C(Cc2c(Cl)cccc2C#N)CN1 (racemic)	pIC50	5.11
COc1ccc(Cl)cc1C[C@@H]1CN/C(=N\N(C)C)CN(CC(=O)Nc2cccc(C(=O)O)c2)C1=O	pIC50	< 4.52
COc1ccc(Cl)cc1C[C@@H]1CN/C(=N\N(C)C)CN(CC(=O)Nc2cccc(-c3cnn(C)c3)c2)C1=O	pIC50	< 4.52
CN(C)/N=C1/CN(CC(=O)Nc2cccc(-c3cnn(C)c3)c2)C(=O)C(Cc2ccccc2C#N)CN1 (racemic)	pIC50	< 4.52
CN(C)/N=C1/CN(CC(=O)Nc2cccc(-c3cnn(C)c3)c2)C(=O)C(Cc2c(F)cccc2F)CN1 (racemic)	pIC50	< 4.52
Cc1cccc(F)c1CC1CN/C(=N\N(C)C)CN(CC(=O)Nc2cccc(-c3cnn(C)c3)c2)C1=O (racemic)	pIC50	5.11
COc1cccc(F)c1CC1CN/C(=N\N(C)C)CN(CC(=O)Nc2cccc(-c3cnn(C)c3)c2)C1=O (racemic)	pIC50	< 4.52

Here's the next entry for you.
Request: // pIC50 lookup, key: COc1ccccc1C[C@@H]1CN/C(=N\N(C)C)CN(CC(=O)Nc2cccc(-c3cnn(C)c3)c2)C1=O
Response: < 4.52
